biological target: COP9 signalosome complex subunit 5 (Homo sapiens); assay: Induction of PD-L1 degradation in human NCI-H460 cells at 10 uM incubated for 24 hrs by Western blot analysis; format: cell-based
Activity calls are given as the source filed them. No cut-off for these calls is given here.
Respond with a class label; see y (active), n (inactive)

[
  {
    "compound": "COc1cc2c(cc1OC)-c1cc3ccc(OC)c(OCCOCCOCCN)c3c[n+]1CC2.[Cl-]",
    "discrete.label": "y"
  }
]

Prompt line: Which outcome was assigned to COc1cc2c(cc1OC)-c1cc3ccc(OC)c(OC)c3c[n+]1CC2.[Cl-] [PALMATINE CHLORIDE] in this test?
Response line: y

Prompt line: Which result was noted for this compound in the test: COc1cc2c(cc1OC)-c1cc3ccc(OC)c(OCCCN)c3c[n+]1CC2.[Cl-]
Response line: y

Prompt line: What classification did COc1ccc2cc3[n+](cc2c1OCCOCCOCCN)CCc1cc2c(cc1-3)OCO2.[Cl-] end up with in this test?
Response line: y

====

experiment: Antiproliferative activity against human HTori-3 cells at 10 uM incubated for 4 days; assay type: toxicity, cell-based; conditions: htori-3, 96 h, time 4 day
result.type: Activity

[
  {
    "molecule.smiles": "COc1cc2c(cc1OC)-c1cc3ccc(OC)c(OCCN)c3c[n+]1CC2.[Cl-]",
    "result.type": "Activity",
    "endpoint.value": "Non-toxic"
  },
  {
    "molecule.smiles": "COc1cc2c(cc1OC)-c1cc3ccc(OC)c(OCCNC(=O)OCCSSC[C@H](N)C(=O)NCCCCCC(=O)N[C@@H](CC(N)=O)C(=O)N[C@@H](Cc4ccc(O)cc4)C(=O)N[C@@H](CO)C(=O)N[C@@H](CCCCN)C(=O)N4CCC[C@H]4C(=O)N[C@H](C(=O)N[C@@H](CC(=O)O)C(=O)N[C@@H](CCCNC(=N)N)C(=O)N[C@@H](CCC(N)=O)C(=O)N[C@@H](Cc4ccc(O)cc4)C(=O)N[C@@H](Cc4cnc[nH]4)C(=O)N[C@@H](Cc4ccccc4)C(=O)O)[C@@H](C)O)c3c[n+]1CC2.[Cl-]",
    "result.type": "Activity",
    "endpoint.value": "Non-toxic"
  },
  {
    "molecule.smiles": "COc1cc2c(cc1OC)-c1cc3ccc(OC)c(OCCNC(=O)OCc4ccc(SSC[C@H](N)C(=O)NCCCCCC(=O)N[C@@H](CC(N)=O)C(=O)N[C@@H](Cc5ccc(O)cc5)C(=O)N[C@@H](CO)C(=O)N[C@@H](CCCCN)C(=O)N5CCC[C@H]5C(=O)N[C@H](C(=O)N[C@@H](CC(=O)O)C(=O)N[C@@H](CCCNC(=N)N)C(=O)N[C@@H](CCC(N)=O)C(=O)N[C@@H](Cc5ccc(O)cc5)C(=O)N[C@@H](Cc5cnc[nH]5)C(=O)N[C@@H](Cc5ccccc5)C(=O)O)[C@@H](C)O)cc4)c3c[n+]1CC2.[Cl-]",
    "result.type": "Activity",
    "endpoint.value": "Toxic"
  },
  {
    "molecule.smiles": "C[C@@H](O)[C@H](NC(=O)[C@@H]1CCCN1C(=O)[C@H](CCCCN)NC(=O)[C@H](CO)NC(=O)[C@H](Cc1ccc(O)cc1)NC(=O)[C@H](CC(N)=O)NC(=O)CCCCCNC(=O)[C@@H](N)CS)C(=O)N[C@@H](CC(=O)O)C(=O)N[C@@H](CCCNC(=N)N)C(=O)N[C@@H](CCC(N)=O)C(=O)N[C@@H](Cc1ccc(O)cc1)C(=O)N[C@@H](Cc1cnc[nH]1)C(=O)N[C@@H](Cc1ccccc1)C(=O)O",
    "result.type": "Activity",
    "endpoint.value": "Non-toxic"
  }
]
